# Assayed system: human KDR (human, UniProt P35968 20-1356)
# Sequence (P35968 20-1356): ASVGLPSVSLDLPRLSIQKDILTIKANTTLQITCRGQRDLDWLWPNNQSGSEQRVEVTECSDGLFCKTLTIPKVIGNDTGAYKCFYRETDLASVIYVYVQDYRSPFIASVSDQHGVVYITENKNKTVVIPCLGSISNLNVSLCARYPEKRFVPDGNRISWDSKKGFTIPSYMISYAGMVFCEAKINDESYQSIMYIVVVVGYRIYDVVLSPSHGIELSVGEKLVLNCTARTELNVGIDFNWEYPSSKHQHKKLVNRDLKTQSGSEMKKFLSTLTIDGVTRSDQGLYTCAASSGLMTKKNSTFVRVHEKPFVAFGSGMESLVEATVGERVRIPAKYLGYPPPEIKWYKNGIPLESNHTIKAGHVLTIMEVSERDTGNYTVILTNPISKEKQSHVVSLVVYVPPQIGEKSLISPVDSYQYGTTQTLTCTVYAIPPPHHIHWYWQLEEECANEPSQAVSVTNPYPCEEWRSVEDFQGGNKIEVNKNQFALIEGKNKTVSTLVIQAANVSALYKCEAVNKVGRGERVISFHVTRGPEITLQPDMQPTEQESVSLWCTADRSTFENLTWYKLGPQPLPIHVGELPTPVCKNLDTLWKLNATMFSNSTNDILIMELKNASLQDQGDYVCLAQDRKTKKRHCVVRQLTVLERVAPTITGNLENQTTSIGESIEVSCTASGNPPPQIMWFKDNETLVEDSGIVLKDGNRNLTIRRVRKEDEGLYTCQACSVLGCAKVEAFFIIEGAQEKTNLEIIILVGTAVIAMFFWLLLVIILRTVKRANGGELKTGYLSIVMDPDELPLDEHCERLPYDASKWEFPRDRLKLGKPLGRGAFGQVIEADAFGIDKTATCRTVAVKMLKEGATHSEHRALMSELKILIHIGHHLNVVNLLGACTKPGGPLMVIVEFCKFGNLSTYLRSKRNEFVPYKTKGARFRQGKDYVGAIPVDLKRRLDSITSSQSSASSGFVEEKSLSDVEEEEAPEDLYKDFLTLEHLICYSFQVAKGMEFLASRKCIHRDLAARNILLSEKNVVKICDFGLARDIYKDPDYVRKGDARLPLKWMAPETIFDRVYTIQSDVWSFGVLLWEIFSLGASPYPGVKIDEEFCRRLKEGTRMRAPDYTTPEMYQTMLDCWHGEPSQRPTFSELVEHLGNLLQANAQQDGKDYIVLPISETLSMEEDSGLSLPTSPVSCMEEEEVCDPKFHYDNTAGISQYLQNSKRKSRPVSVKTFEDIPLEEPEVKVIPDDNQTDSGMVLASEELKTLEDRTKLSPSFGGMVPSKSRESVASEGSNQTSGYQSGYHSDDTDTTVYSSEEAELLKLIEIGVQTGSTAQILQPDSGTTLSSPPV
# Test: cell-based or functional assay
Measurement type: KDR tyrosine phosphorylation in HUVEC, EC50 (nM), N = 1
Could you give me the number in nM? Just the number is fine.

Observe how each entry below is paired with its result.
{"Binder": "21H6 (antibody, V domains shown, Fully human monoclonal antibody from a XenoMouse hybridoma, purified) VH: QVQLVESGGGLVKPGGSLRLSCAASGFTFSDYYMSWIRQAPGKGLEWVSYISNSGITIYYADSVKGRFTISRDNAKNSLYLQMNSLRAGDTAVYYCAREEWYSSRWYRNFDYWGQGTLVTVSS VL: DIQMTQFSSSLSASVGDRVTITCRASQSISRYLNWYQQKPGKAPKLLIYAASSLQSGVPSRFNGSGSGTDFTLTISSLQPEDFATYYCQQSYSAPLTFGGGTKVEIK", "Test result": 7.1}
{"Binder": "29H3 (antibody, V domains shown, Fully human monoclonal antibody from a XenoMouse hybridoma (IgG2 or IgG4 strain), purified) VH: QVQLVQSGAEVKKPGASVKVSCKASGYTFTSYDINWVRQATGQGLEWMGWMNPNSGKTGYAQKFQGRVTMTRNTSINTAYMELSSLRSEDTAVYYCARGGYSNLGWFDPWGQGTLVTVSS VL: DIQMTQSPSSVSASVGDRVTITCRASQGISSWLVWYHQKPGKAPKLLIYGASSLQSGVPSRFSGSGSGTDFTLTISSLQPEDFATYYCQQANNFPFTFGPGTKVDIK", "Test result": 0.5}
{"Binder": "33C3 (antibody, V domains shown, Fully human monoclonal antibody from a XenoMouse hybridoma (IgG2 or IgG4 strain), purified) VH: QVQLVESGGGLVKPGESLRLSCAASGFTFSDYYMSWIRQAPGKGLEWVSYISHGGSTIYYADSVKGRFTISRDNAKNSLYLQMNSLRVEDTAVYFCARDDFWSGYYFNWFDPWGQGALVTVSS VL: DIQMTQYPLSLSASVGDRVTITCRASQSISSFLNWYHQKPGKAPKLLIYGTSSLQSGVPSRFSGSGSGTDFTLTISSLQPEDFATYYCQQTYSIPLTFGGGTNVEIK", "Test result": 1.2}
{"Binder": "33E1 (antibody, V domains shown, Fully human monoclonal antibody from a XenoMouse hybridoma (IgG2 or IgG4 strain), purified) VH: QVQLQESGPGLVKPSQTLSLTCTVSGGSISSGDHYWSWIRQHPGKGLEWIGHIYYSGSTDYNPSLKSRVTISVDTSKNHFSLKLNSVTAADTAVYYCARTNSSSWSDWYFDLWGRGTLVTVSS VL: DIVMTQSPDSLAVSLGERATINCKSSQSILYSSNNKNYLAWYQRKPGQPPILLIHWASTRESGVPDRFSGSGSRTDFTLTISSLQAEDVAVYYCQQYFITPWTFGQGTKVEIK", "Test result": 5.8}
{"Binder": "32G7 (antibody, V domains shown, Fully human monoclonal antibody from a XenoMouse hybridoma (IgG2 or IgG4 strain), purified) VH: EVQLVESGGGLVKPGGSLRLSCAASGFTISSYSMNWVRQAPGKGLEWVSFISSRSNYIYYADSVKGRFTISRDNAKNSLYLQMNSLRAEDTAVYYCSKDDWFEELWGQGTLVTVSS VL: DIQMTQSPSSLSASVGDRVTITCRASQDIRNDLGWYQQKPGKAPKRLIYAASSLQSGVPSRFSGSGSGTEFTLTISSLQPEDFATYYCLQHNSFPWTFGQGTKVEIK", "Test result": 0.6}
{"Binder": "22B8 (antibody, V domains shown, Fully human monoclonal antibody from a XenoMouse hybridoma (IgG2 or IgG4 strain), purified) VH: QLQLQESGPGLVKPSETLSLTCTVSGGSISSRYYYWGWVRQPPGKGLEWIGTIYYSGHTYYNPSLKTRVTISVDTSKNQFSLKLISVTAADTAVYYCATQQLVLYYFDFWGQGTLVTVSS VL: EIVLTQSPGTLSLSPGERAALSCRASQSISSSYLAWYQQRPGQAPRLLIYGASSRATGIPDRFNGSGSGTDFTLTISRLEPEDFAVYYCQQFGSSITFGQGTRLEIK", "Test result": 2.7}
{"Binder": "32F4 (antibody, V domains shown, Fully human monoclonal antibody from a XenoMouse hybridoma (IgG2 or IgG4 strain), purified) VH: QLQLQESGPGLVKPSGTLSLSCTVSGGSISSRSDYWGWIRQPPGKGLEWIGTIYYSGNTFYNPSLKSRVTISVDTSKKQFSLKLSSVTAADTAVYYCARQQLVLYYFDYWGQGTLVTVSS VL: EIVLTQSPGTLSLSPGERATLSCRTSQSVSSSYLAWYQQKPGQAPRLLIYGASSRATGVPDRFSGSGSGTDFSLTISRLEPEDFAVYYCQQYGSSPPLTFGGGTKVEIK", "Test result": 1.7}
{"Binder": "27A3 (antibody, V domains shown, Fully human monoclonal antibody from a XenoMouse hybridoma (IgG2 or IgG4 strain), purified) VH: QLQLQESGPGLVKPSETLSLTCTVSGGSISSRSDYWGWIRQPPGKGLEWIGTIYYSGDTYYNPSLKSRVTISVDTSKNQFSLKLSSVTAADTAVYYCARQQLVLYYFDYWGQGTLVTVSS VL: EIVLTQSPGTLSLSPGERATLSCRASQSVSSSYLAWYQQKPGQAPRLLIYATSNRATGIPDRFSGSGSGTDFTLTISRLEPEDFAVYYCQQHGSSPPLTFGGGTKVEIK", "Test result": 3.4}

Notebook: 33B1 (antibody, V domains shown, Fully human monoclonal antibody from a XenoMouse hybridoma (IgG2 or IgG4 strain), purified) VH: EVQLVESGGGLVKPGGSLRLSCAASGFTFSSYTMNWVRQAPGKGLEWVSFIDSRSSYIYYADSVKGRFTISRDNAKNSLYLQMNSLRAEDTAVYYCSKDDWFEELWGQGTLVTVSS VL: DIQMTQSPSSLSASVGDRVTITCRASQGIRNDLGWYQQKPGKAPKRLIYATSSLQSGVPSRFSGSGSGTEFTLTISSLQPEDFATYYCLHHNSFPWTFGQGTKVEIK , KDR tyrosine phosphorylation in HUVEC, EC50 (nM), N = 1 read as 1.2

Notebook: 24B3 (antibody, V domains shown, Fully human monoclonal antibody from a XenoMouse hybridoma (IgG2 or IgG4 strain), purified) VH: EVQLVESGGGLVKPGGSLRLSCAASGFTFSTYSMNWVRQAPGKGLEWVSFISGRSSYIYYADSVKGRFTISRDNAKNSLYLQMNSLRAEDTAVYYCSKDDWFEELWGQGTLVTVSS VL: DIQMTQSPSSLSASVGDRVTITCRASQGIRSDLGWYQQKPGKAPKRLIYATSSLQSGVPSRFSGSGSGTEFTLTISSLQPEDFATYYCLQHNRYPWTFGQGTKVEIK , KDR tyrosine phosphorylation in HUVEC, EC50 (nM), N = 1 read as 2.1

Notebook: 31E11 (antibody, V domains shown, Fully human monoclonal antibody from a XenoMouse hybridoma (IgG2 or IgG4 strain), purified) VH: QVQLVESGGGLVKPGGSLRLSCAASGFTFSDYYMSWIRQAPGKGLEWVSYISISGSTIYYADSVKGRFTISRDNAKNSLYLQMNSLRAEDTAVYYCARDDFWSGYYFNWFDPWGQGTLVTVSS VL: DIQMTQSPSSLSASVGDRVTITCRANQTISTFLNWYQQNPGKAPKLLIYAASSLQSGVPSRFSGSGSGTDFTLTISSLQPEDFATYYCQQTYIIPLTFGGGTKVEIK , KDR tyrosine phosphorylation in HUVEC, EC50 (nM), N = 1 read as 2
